Values compiled from ChEMBL document CHEMBL6134890.

Tested on: Escherichia coli
METHOD NOTES: Antimicrobial activity against Escherichia coli ATCC 25922 assessed as reduction in bacterial growth by broth dilution method
Format: functional
Peptide text beside a SMILES is read from it.
PROPERTY: MIC (µM)
One number for each entry, in µM.

Answer for every listed entry: what is its MIC? The entries follow.
1. CC[C@H](C)[C@H](NC(=O)[C@H](CCCCN)NC(=O)[C@@H](NC(=O)[C@H](CCCCN)NC(=O)[C@@H]1CCCN1C(=O)[C@H](Cc1c[nH]c2ccccc12)NC(=O)[C@H](Cc1c[nH]c2ccccc12)NC(=O)[C@H](Cc1c[nH]c2ccccc12)NC(=O)[C@@H]1CCCN1C(=O)[C@H](CCCCN)NC(=O)[C@@H](NC(=O)[C@H](CCCCN)NC(=O)[C@@H](NC(=O)[C@@H](N)CCCCN)[C@@H](C)CC)[C@@H](C)CC)[C@@H](C)CC)C(=O)N[C@@H](CCCCN)C(N)=O (H-KIKIKPWWWPKIKIK-NH2)
2. CC(C)C[C@H](NC(=O)[C@H](Cc1ccccc1)NC(=O)[C@@H]1CCCN1C(=O)[C@H](Cc1c[nH]c2ccccc12)NC(=O)[C@H](Cc1c[nH]c2ccccc12)NC(=O)[C@H](Cc1c[nH]c2ccccc12)NC(=O)[C@@H]1CCCN1C(=O)[C@H](Cc1ccccc1)NC(=O)[C@H](CCCNC(=N)N)NC(=O)[C@H](CCCNC(=N)N)NC(=O)[C@@H](N)C(C)C)C(=O)N[C@@H](CCCNC(=N)N)C(=O)N[C@@H](CCCNC(=N)N)C(=O)O

Response:
[4, 16]
